Hi there, I'd appreciate the recorded IC50 for every entry that follows.
test system: HCCC9810; test: In vitro human tumor cell line cytotoxicity assay; assay type: cell-based; details: Homo sapiens, read-out: AbsIC50
Numbers only here, please. The scale is nM.

Query IC50 for C[C@@H](OP(=O)(N1CC1)N1CC1)c1ccc([N+](=O)[O-])c(Oc2cccc(C(=O)N(C)C)c2)c1 (single isomer, unassigned) [TH3423] 18.7

Output measured IC50 for this item: CC(OP(=O)(N1CC1)N1CC1)c1ccc([N+](=O)[O-])c(Oc2cccc(C(=O)N(C)C)c2)c1 (racemic) [TH 2870] 29.4

Give the reported value of IC50 for this record: C[C@H](OP(=O)(N1CC1)N1CC1)c1ccc([N+](=O)[O-])c(Oc2cccc(C(=O)N(C)C)c2)c1 (single isomer, unassigned) [TH3424] 13.9

----------
assay: Pharmacokinetics (TK) after 30-min IV infusion in monkeys; assay type: in vivo, Cynomolgus monkeys; settings: cynomolgus monkey, plasma; female, 1 hr; 2 mg/kg 30-min IV infusion; read-out: Plasma concentration
Please provide measured concentration at 1 hr for the entries that follow.
Form entry: value (ng/mL) — number only.

Supply recorded concentration at 1 hr for C[C@@H](OP(=O)(N1CC1)N1CC1)c1ccc([N+](=O)[O-])c(Oc2cccc(C(=O)N(C)C)c2)c1 (single isomer, unassigned) here. 55

Complete the entry with concentration at 1 hr for C[C@H](OP(=O)(N1CC1)N1CC1)c1ccc([N+](=O)[O-])c(Oc2cccc(C(=O)N(C)C)c2)c1 (single isomer, unassigned) 110

----------
For each entry below, report its clearance value.
test: Pharmacokinetics (TK) after 30-min IV infusion in monkeys; assay type: in vivo, Cynomolgus monkeys; settings: cynomolgus monkey, plasma; female; 2 mg/kg 30-min IV infusion
Write the answer as a number in mL/min/kg, unit excluded.

Quick one: give measured clearance for C[C@H](OP(=O)(N1CC1)N1CC1)c1ccc([N+](=O)[O-])c(Oc2cccc(C(=O)N(C)C)c2)c1 (single isomer, unassigned) 27.8

Return the recorded clearance value; entry: C[C@@H](OP(=O)(N1CC1)N1CC1)c1ccc([N+](=O)[O-])c(Oc2cccc(C(=O)N(C)C)c2)c1 (single isomer, unassigned) 43.5

----------
test: Pharmacokinetics (TK) after 30-min IV infusion in monkeys; type: in vivo, Cynomolgus monkeys; settings: both sexes, cynomolgus monkey, plasma; Mean; 2 mg/kg 30-min IV infusion; read-out: Vss
Would you kindly list Vd for each of these compounds?

Hello, please tell me recorded Vd for this one: C[C@H](OP(=O)(N1CC1)N1CC1)c1ccc([N+](=O)[O-])c(Oc2cccc(C(=O)N(C)C)c2)c1 (single isomer, unassigned) [TH3424] 0.325 L/kg

Item C[C@@H](OP(=O)(N1CC1)N1CC1)c1ccc([N+](=O)[O-])c(Oc2cccc(C(=O)N(C)C)c2)c1 (single isomer, unassigned) [TH3423] : provide Vd 0.527 L/kg

----------
test system: SNU-387; assay: In vitro human tumor cell line cytotoxicity assay; format: cell-based; conditions: Homo sapiens, read-out: RelIC50
ENDPOINT_NAME: pIC50
Reminder that pIC50 means the negative base-10 logarithm of the concentration expressed in mol/L.

Quickly give me recorded pIC50 for C[C@@H](OP(=O)(N1CC1)N1CC1)c1ccc([N+](=O)[O-])c(Oc2cccc(C(=O)N(C)C)c2)c1 (single isomer, unassigned) 7.33

Input C[C@H](OP(=O)(N1CC1)N1CC1)c1ccc([N+](=O)[O-])c(Oc2cccc(C(=O)N(C)C)c2)c1 (single isomer, unassigned) , output reported pIC50. 7.23

// Input: CC(OP(=O)(N1CC1)N1CC1)c1ccc([N+](=O)[O-])c(Oc2cccc(C(=O)N(C)C)c2)c1 (racemic) . Output its pIC50 only. 7.37

----------
tested on: PLCPRF5; experiment: In vitro human tumor cell line cytotoxicity assay; format: cell-based; details: Homo sapiens, PLC-PRF-5, read-out: RelIC50
Please respond with reported pIC50 for every item in the list.
Friendly reminder that pIC50 comes from taking -log10 of the concentration in mol/L.

Provide measured pIC50 value, entry: CC(OP(=O)(N1CC1)N1CC1)c1ccc([N+](=O)[O-])c(Oc2cccc(C(=O)N(C)C)c2)c1 (racemic) 6.32

Provide only the value of recorded pIC50 for C[C@@H](OP(=O)(N1CC1)N1CC1)c1ccc([N+](=O)[O-])c(Oc2cccc(C(=O)N(C)C)c2)c1 (single isomer, unassigned) 6.81

Look up and state reported pIC50 for C[C@H](OP(=O)(N1CC1)N1CC1)c1ccc([N+](=O)[O-])c(Oc2cccc(C(=O)N(C)C)c2)c1 (single isomer, unassigned) 6.89

----------
test system: KYSE; assay: In vitro human tumor cell line cytotoxicity assay; assay type: cell-based; conditions: read-out: RelIC50
ENDPOINT_NAME: pIC50
Reminder that pIC50 means the negative base-10 logarithm of the concentration expressed in mol/L.

Name the recorded pIC50 of the item C[C@H](OP(=O)(N1CC1)N1CC1)c1ccc([N+](=O)[O-])c(Oc2cccc(C(=O)N(C)C)c2)c1 (single isomer, unassigned) [TH3424] in your answer. 7.96

----------
test system: K-562; assay: In vitro human tumor cell line cytotoxicity assay; format: cell-based; details: K562, read-out: RelIC50
pIC50: −log10 of the molar value.
ENDPOINT_NAME: pIC50

Give pIC50 for this entry on K-562: C[C@H](OP(=O)(N1CC1)N1CC1)c1ccc([N+](=O)[O-])c(Oc2cccc(C(=O)N(C)C)c2)c1 (single isomer, unassigned) < 6.00

----------
assay: Pharmacokinetics (TK) after 30-min IV infusion in monkeys; assay type: in vivo, Cynomolgus monkeys; details: both sexes, cynomolgus monkey, plasma; mean, 0.75 hr; 2 mg/kg 30-min IV infusion; read-out: Plasma concentration, Mean
So I've got a bunch of compounds here, and I need their concentration at 0.75 hr values.
Could you give me the number in ng/mL? Just the number is fine.

For the compound C[C@H](OP(=O)(N1CC1)N1CC1)c1ccc([N+](=O)[O-])c(Oc2cccc(C(=O)N(C)C)c2)c1 (single isomer, unassigned) , give its measured concentration at 0.75 hr value. 794

Retrieve concentration at 0.75 hr measured for C[C@@H](OP(=O)(N1CC1)N1CC1)c1ccc([N+](=O)[O-])c(Oc2cccc(C(=O)N(C)C)c2)c1 (single isomer, unassigned) and print it. 336

----------
Consider the following compounds; for each one, report its pIC50.
tested on: LIXC012; assay: In vitro human tumor cell line cytotoxicity assay; format: cell-based; conditions: Homo sapiens, read-out: AbsIC50
Please treat pIC50 as minus the base-10 logarithm of the molar concentration.

Supply pIC50 measured with LIXC012 for C[C@H](OP(=O)(N1CC1)N1CC1)c1ccc([N+](=O)[O-])c(Oc2cccc(C(=O)N(C)C)c2)c1 (single isomer, unassigned) . 7.76

Name the recorded pIC50 of CC(OP(=O)(N1CC1)N1CC1)c1ccc([N+](=O)[O-])c(Oc2cccc(C(=O)N(C)C)c2)c1 (racemic) , assay system LIXC012. 7.73

Please respond with reported pIC50 (system LIXC012) for C[C@@H](OP(=O)(N1CC1)N1CC1)c1ccc([N+](=O)[O-])c(Oc2cccc(C(=O)N(C)C)c2)c1 (single isomer, unassigned) . 7.77

----------
system: HL-60 Clone; test: In vitro human tumor cell line cytotoxicity assay; type: cell-based; conditions: read-out: RelIC50
ENDPOINT_NAME: IC50 (nM)
Write the number in nM without appending the unit.

Provide IC50, system HL-60 Clone, entry C[C@H](OP(=O)(N1CC1)N1CC1)c1ccc([N+](=O)[O-])c(Oc2cccc(C(=O)N(C)C)c2)c1 (single isomer, unassigned) [TH3424] 52.6
